Target: Alpha-L-iduronidase (Homo sapiens, UniProt P35475)
Sequence (P35475 whole entry): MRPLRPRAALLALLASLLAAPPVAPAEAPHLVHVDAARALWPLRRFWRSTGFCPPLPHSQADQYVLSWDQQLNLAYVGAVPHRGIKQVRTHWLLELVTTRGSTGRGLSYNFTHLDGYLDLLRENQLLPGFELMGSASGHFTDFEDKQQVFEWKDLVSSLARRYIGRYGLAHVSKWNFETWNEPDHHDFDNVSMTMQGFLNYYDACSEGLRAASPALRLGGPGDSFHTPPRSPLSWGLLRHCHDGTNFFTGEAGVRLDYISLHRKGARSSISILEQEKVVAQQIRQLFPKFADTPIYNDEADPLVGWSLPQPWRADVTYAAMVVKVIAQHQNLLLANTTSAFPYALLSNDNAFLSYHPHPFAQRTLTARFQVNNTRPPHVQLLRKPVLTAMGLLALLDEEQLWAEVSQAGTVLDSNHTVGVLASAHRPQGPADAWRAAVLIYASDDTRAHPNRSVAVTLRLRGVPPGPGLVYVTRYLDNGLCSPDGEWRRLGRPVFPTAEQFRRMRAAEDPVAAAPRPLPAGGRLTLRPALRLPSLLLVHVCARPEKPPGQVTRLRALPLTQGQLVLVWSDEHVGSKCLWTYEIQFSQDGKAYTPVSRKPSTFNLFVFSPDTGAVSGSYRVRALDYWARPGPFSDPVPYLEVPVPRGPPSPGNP
Test: Inhibition of human seminal fluid alpha-L-iduronidase using 4-methylumbelliferyl-alpha-L-idosiduronic acid as substrate incubated for 1 hr by fluorescence based assay
result type: pIC50
Give bare numbers, as −log10 of the molar value.

# input Report pIC50 for "O=C1O[C@H]([C@@H](O)C(=O)O)[C@H](O)[C@H]1O" please.
# output 4.40

* * *

Target: Alpha-L-iduronidase (Homo sapiens, UniProt P35475)
Sequence (P35475 whole entry): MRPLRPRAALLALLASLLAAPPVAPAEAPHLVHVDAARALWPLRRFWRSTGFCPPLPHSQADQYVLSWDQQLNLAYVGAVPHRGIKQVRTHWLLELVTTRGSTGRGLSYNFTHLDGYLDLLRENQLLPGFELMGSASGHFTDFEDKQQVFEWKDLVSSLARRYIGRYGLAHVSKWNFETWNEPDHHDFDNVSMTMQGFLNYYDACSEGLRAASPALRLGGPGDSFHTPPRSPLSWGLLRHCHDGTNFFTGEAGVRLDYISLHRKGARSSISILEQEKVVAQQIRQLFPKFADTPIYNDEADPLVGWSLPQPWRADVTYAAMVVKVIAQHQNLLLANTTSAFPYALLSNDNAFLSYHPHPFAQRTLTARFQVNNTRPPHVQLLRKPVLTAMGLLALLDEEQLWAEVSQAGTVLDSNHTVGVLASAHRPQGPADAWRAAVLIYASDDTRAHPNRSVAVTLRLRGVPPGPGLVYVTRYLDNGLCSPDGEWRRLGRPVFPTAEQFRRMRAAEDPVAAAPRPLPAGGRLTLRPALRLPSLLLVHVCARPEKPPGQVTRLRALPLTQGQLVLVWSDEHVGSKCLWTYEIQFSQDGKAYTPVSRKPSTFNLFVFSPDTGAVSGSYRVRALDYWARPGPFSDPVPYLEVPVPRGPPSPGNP
Assay: Inhibition of human recombinant alpha-L-iduronidase using 4-methylumbelliferyl-alpha-iduronide as fluorogenic substrate assessed as inhibition constant by Lineweaver-Burk plot analysis
result type: Ki (µM)
Answers are plain numbers, in µM.

# input Name the reported Ki value associated with the compound "NCC[C@@H]1O[C@@H](C(=O)O)[C@@H](O)[C@H](O)[C@H]1O"
# output 4

* * *

Biological target: Alpha-L-iduronidase (Homo sapiens)
Sequence (P35475 whole entry): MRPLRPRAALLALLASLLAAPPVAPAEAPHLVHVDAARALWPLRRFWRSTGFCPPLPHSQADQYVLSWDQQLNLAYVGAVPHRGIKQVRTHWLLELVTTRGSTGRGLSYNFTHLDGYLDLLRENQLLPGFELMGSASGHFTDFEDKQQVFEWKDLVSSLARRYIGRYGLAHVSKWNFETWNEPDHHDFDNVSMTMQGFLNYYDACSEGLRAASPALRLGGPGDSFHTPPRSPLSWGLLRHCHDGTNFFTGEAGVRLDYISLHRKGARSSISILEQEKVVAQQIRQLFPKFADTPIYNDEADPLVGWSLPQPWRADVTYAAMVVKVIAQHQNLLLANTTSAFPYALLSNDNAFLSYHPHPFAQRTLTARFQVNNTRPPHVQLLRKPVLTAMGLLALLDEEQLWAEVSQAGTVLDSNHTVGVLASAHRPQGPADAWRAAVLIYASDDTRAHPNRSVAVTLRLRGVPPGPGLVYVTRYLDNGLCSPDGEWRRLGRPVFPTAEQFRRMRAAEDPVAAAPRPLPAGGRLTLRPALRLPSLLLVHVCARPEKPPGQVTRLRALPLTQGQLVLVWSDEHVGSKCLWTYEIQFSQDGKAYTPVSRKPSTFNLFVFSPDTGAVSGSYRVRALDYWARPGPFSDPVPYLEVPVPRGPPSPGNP
Assay: Inhibition of alpha-L-iduronidase (unknown origin) assessed as inhibition constant
result type: Ki (nM)
Answers are plain numbers, in nM.

# input # Ki lookup, item "O=C(O)[C@]1(F)O[C@@H](F)[C@H](O)[C@@H](O)[C@@H]1O"
# output 1200

* * *

Target: Alpha-L-iduronidase (Homo sapiens) (UniProt P35475)
Assay: Inhibition of human recombinant alpha-L-iduronidase using 4-methylumbelliferyl-alpha-iduronide as fluorogenic substrate at 250 uM relative to control
Assign inhibition to each entry below.

NCC[C@@H]1N[C@@H](C(=O)O)[C@@H](O)[C@H](O)[C@H]1O: < 10%
O=C(Cc1cccc(OP(=O)(O)O)c1)NCC[C@@H]1N[C@@H](C(=O)O)[C@@H](O)[C@H](O)[C@H]1O: < 10%
O=C(Cc1ccccc1OP(=O)(O)O)NCC[C@@H]1N[C@@H](C(=O)O)[C@@H](O)[C@H](O)[C@H]1O: 43%

As a next step, examine the molecule that follows.
# input Name the recorded inhibition for "O=C(Cc1ccc(OP(=O)(O)O)cc1)NCC[C@@H]1N[C@@H](C(=O)O)[C@@H](O)[C@H](O)[C@H]1O" .
# output < 10%

* * *

Molecular target: UniProtKB P35475
Experiment: Inhibition of human recombinant alpha-L-iduronidase using 4-methylumbelliferyl-alpha-iduronide as fluorogenic substrate
result type: IC50 (µM)
One number for each entry, in µM.

# batch: return IC50 for each of the 3 compounds below
1. O=C(Cc1cccc(OP(=O)(O)O)c1)NCC[C@@H]1O[C@@H](C(=O)O)[C@@H](O)[C@H](O)[C@H]1O
2. O=C(Cc1ccccc1OP(=O)(O)O)NCC[C@@H]1O[C@@H](C(=O)O)[C@@H](O)[C@H](O)[C@H]1O
3. O=C(Cc1ccc(OP(=O)(O)O)cc1)NCC[C@@H]1O[C@@H](C(=O)O)[C@@H](O)[C@H](O)[C@H]1O

# output
4
1
5.4

# input Could you share which IC50 value was measured for "NCC[C@@H]1O[C@@H](C(=O)O)[C@@H](O)[C@H](O)[C@H]1O" ?
# output 6.7
